All figures here come from PubChem BioAssay AID1919016.

system: NCI-H196 complex spheroid growth, percent test/control; experiment: Anticancer human tumor NCI-H196 cell line growth inhibition [AhR]; details: second compound 0.1 µM; first compound 10 µM; active means viability on the fitted dose curve at most 10% of control; inactive means the rest
The reply should be one of these categories: active, inactive

These recorded examples may help you get a feel for the data.
CC1(C)CCC(CN2CCN(c3ccc(C(=O)NS(=O)(=O)c4ccc(NCC5CCOCC5)c([N+](=O)[O-])c4)c(Oc4cnc5[nH]ccc5c4)c3)CC2)=C(c2ccc(Cl)cc2)C1 + Cc1ccccc1N=Nc1ccc(NC(=O)c2ccnn2C)c(C)c1: inactive
NS(=O)(=O)OCC1CC(n2ccc3c(NC4CCc5ccccc54)ncnc32)CC1O (configuration not stated) + CC(CO)NC(=O)c1cc(-c2ccc(Cl)cc2)nn(-c2cnn(C)c2)c1=O: inactive
Nc1ccccc1NC(=O)c1ccc(CNC(=O)OCc2cccnc2)cc1 + CC(CO)NC(=O)c1cc(-c2ccc(Cl)cc2)nn(-c2cnn(C)c2)c1=O: active
O=C(C=Cc1cccc(S(=O)(=O)Nc2ccccc2)c1)NO + Cc1ccccc1N=Nc1ccc(NC(=O)c2ccnn2C)c(C)c1: active
COc1cc(Nc2ncc3c(n2)-c2ccc(Cl)cc2C(c2c(F)cccc2OC)=NC3)ccc1C(=O)O + Cc1cncc(-c2nc(NCCc3c[nH]c4ccccc34)c3ncn(C(C)C)c3n2)c1: inactive
Nc1ccn(C2OC(CO)C(O)C2(F)F)c(=O)n1 (configuration not stated) + CC(CO)NC(=O)c1cc(-c2ccc(Cl)cc2)nn(-c2cnn(C)c2)c1=O: inactive

Challenge: Hello, I am checking results. What call was entered for CC(C)c1c(-c2ccccc2)nc2c(C#N)c[nH]n2c1=O + Cc1ccccc1N=Nc1ccc(NC(=O)c2ccnn2C)c(C)c1 ?
Response given: inactive

Challenge: Hello, I am checking results. What call was entered for CC1COCCN1c1cc(C2(S(C)(=N)=O)CC2)nc(-c2ccnc3[nH]ccc23)n1 (configuration not stated) + Cc1cncc(-c2nc(NCCc3c[nH]c4ccccc34)c3ncn(C(C)C)c3n2)c1 ?
Response given: inactive

Challenge: Hello, I am checking results. What call was entered for Nc1ccccc1NC(=O)c1ccc(CNC(=O)OCc2cccnc2)cc1 + Cc1ccccc1N=Nc1ccc(NC(=O)c2ccnn2C)c(C)c1 ?
Response given: active

Challenge: Hello, I am checking results. What call was entered for Nc1ccccc1NC(=O)c1ccc(CNC(=O)OCc2cccnc2)cc1 + Cc1cncc(-c2nc(NCCc3c[nH]c4ccccc34)c3ncn(C(C)C)c3n2)c1 ?
Response given: active

Challenge: Hello, I am checking results. What call was entered for CC1(C)CCC(CN2CCN(c3ccc(C(=O)NS(=O)(=O)c4ccc(NCC5CCOCC5)c([N+](=O)[O-])c4)c(Oc4cnc5[nH]ccc5c4)c3)CC2)=C(c2ccc(Cl)cc2)C1 + CC(CO)NC(=O)c1cc(-c2ccc(Cl)cc2)nn(-c2cnn(C)c2)c1=O ?
Response given: inactive

Challenge: Hello, I am checking results. What call was entered for CC(C)c1c(-c2ccccc2)nc2c(C#N)c[nH]n2c1=O + CC(CO)NC(=O)c1cc(-c2ccc(Cl)cc2)nn(-c2cnn(C)c2)c1=O ?
Response given: inactive

###

system: NCI-H196 complex spheroid growth, percent test/control; assay: Anticancer human tumor NCI-H196 cell line growth inhibition [AhR]; conditions: second compound 0.316 µM; first compound 3.16 µM; hits give low values;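 further: seven days of drug exposure starting three days after plating; 100% = DMSO vehicle control wells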
Entries annotated with measured viability, T/C
Supply the numeric figure in %, leaving out any unit text.

COc1cc(Nc2ncc3c(n2)-c2ccc(Cl)cc2C(c2c(F)cccc2OC)=NC3)ccc1C(=O)O + CC(CO)NC(=O)c1cc(-c2ccc(Cl)cc2)nn(-c2cnn(C)c2)c1=O: 127
Nc1ccccc1NC(=O)c1ccc(CNC(=O)OCc2cccnc2)cc1 + Cc1ccccc1N=Nc1ccc(NC(=O)c2ccnn2C)c(C)c1: 18.5

The record that follows has no viability, T/C shown yet.
Challenge: Form field - read-out: viability, T/C; system: NCI-H196 complex spheroid growth, percent test/control; submitted item: COc1ccc([C@@H](O)c2cc(-c3ncnc4cc(N5CCOCC5)ccc34)c(F)cc2Cl)nn1 + CC(CO)NC(=O)c1cc(-c2ccc(Cl)cc2)nn(-c2cnn(C)c2)c1=O
Response given: 80.2

###

tested on: NCI-H196 complex spheroid growth, percent test/control; assay: Anticancer human tumor NCI-H196 cell line growth inhibition [AhR]; conditions: second compound 3.16 µM; first compound 0.316 µM; hits give low values;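 further: seven days of drug exposure starting three days after plating; 100% = DMSO vehicle control wells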
Entries annotated with measured viability, T/C
Supply the numeric figure in %, leaving out any unit text.

# count of solved cases: 3
O=C(c1cc(Cc2n[nH]c(=O)c3ccccc23)ccc1F)N1CCN(C(=O)C2CC2)CC1 + Cc1cncc(-c2nc(NCCc3c[nH]c4ccccc34)c3ncn(C(C)C)c3n2)c1: 98.1
Nc1ccn(C2OC(CO)C(O)C2(F)F)c(=O)n1 (centres undefined) + Cc1ccccc1N=Nc1ccc(NC(=O)c2ccnn2C)c(C)c1: 62.7
CC1COCCN1c1cc(-c2ccnn2C)c2ccnc(-c3ccn[nH]3)c2n1 (centres undefined) + Cc1cncc(-c2nc(NCCc3c[nH]c4ccccc34)c3ncn(C(C)C)c3n2)c1: 77.6

Challenge: Form field - read-out: viability, T/C; system: NCI-H196 complex spheroid growth, percent test/control; submitted item: CC1COCCN1c1cc(C2(S(C)(=N)=O)CC2)nc(-c2ccnc3[nH]ccc23)n1 (centres undefined) + Cc1cncc(-c2nc(NCCc3c[nH]c4ccccc34)c3ncn(C(C)C)c3n2)c1
Response given: 104

###

Entries annotated with measured viability, T/C
system: NCI-H196 complex spheroid growth, percent test/control; assay: Anticancer human tumor NCI-H196 cell line growth inhibition [AhR]; conditions: second compound 0.1 µM; first compound 0.00949 µM; hits give low values;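 further: seven days of drug exposure starting three days after plating; 100% = DMSO vehicle control wells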

CCN(c1cc(-c2ccc(CN3CCOCC3)cc2)cc(C(=O)NCc2c(C)cc(C)[nH]c2=O)c1C)C1CCOCC1 + Cc1ccccc1N=Nc1ccc(NC(=O)c2ccnn2C)c(C)c1: 95%
Nc1ncn(C2CC(O)C(CO)S2)c(=O)n1 (configuration not stated) + Cc1cncc(-c2nc(NCCc3c[nH]c4ccccc34)c3ncn(C(C)C)c3n2)c1: 109%
O=C(C=Cn1cnc(-c2cc(C(F)(F)F)cc(C(F)(F)F)c2)n1)NNc1cnccn1 + Cc1ccccc1N=Nc1ccc(NC(=O)c2ccnn2C)c(C)c1: 71.3%
CC(C)CC(NC(=O)C(Cc1ccccc1)NC(=O)c1cnccn1)B(O)O (configuration not stated) + Cc1ccccc1N=Nc1ccc(NC(=O)c2ccnn2C)c(C)c1: 74.9%
CCN(c1cc(-c2ccc(CN3CCOCC3)cc2)cc(C(=O)NCc2c(C)cc(C)[nH]c2=O)c1C)C1CCOCC1 + Cc1cncc(-c2nc(NCCc3c[nH]c4ccccc34)c3ncn(C(C)C)c3n2)c1: 103%
CCc1c2c(nc3ccc(O)cc13)-c1cc3c(c(=O)n1C2)COC(=O)[C@]3(O)CC + Cc1ccccc1N=Nc1ccc(NC(=O)c2ccnn2C)c(C)c1: 103%
CCc1c2c(nc3ccc(O)cc13)-c1cc3c(c(=O)n1C2)COC(=O)[C@]3(O)CC + CC(CO)NC(=O)c1cc(-c2ccc(Cl)cc2)nn(-c2cnn(C)c2)c1=O: 107%
CC(C)CC(NC(=O)C(Cc1ccccc1)NC(=O)c1cnccn1)B(O)O (configuration not stated) + CC(CO)NC(=O)c1cc(-c2ccc(Cl)cc2)nn(-c2cnn(C)c2)c1=O: 37%
O=C(C=Cn1cnc(-c2cc(C(F)(F)F)cc(C(F)(F)F)c2)n1)NNc1cnccn1 + Cc1cncc(-c2nc(NCCc3c[nH]c4ccccc34)c3ncn(C(C)C)c3n2)c1: 75.3%
Nc1ncn(C2CC(O)C(CO)S2)c(=O)n1 (configuration not stated) + CC(CO)NC(=O)c1cc(-c2ccc(Cl)cc2)nn(-c2cnn(C)c2)c1=O: 103%

Challenge: Need viability, T/C, item CCN(c1cc(-c2ccc(CN3CCOCC3)cc2)cc(C(=O)NCc2c(C)cc(C)[nH]c2=O)c1C)C1CCOCC1 + CC(CO)NC(=O)c1cc(-c2ccc(Cl)cc2)nn(-c2cnn(C)c2)c1=O
Response given: 111%

Challenge: Need viability, T/C, item CCc1c2c(nc3ccc(O)cc13)-c1cc3c(c(=O)n1C2)COC(=O)[C@]3(O)CC + Cc1cncc(-c2nc(NCCc3c[nH]c4ccccc34)c3ncn(C(C)C)c3n2)c1
Response given: 104%

###

system: NCI-H196 complex spheroid growth, percent test/control; assay: Anticancer human tumor NCI-H196 cell line growth inhibition [AhR]; conditions: second compound 1 µM; first compound 10 µM; active = viability on the fitted dose curve at most 10% of control; inactive = the rest;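 further: seven days of drug exposure starting three days after plating; 100% = DMSO vehicle control wells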
The reply should be one of these categories: class 1 (active), class 0 (inactive)

COc1cccc2c1C(=O)c1c(O)c3c(c(O)c1C2=O)CC(O)(C(=O)CO)CC3OC1CC(N)C(O)C(C)O1 (centres undefined) + Cc1cncc(-c2nc(NCCc3c[nH]c4ccccc34)c3ncn(C(C)C)c3n2)c1: class 1
Nc1ccccc1NC(=O)c1ccc(CNC(=O)OCc2cccnc2)cc1 + Cc1cncc(-c2nc(NCCc3c[nH]c4ccccc34)c3ncn(C(C)C)c3n2)c1: class 1
O=C(c1cc(Cc2n[nH]c(=O)c3ccccc23)ccc1F)N1CCN(C(=O)C2CC2)CC1 + CC(CO)NC(=O)c1cc(-c2ccc(Cl)cc2)nn(-c2cnn(C)c2)c1=O: class 0
NS(=O)(=O)OCC1CC(n2ccc3c(NC4CCc5ccccc54)ncnc32)CC1O (centres undefined) + CC(CO)NC(=O)c1cc(-c2ccc(Cl)cc2)nn(-c2cnn(C)c2)c1=O: class 0
NS(=O)(=O)OCC1CC(n2ccc3c(NC4CCc5ccccc54)ncnc32)CC1O (centres undefined) + Cc1cncc(-c2nc(NCCc3c[nH]c4ccccc34)c3ncn(C(C)C)c3n2)c1: class 0

Challenge: Hello, I am checking results. What call was entered for O=C(c1cc(Cc2n[nH]c(=O)c3ccccc23)ccc1F)N1CCN(C(=O)C2CC2)CC1 + Cc1cncc(-c2nc(NCCc3c[nH]c4ccccc34)c3ncn(C(C)C)c3n2)c1 ?
Response given: class 0

Challenge: Hello, I am checking results. What call was entered for O=C(C=Cc1cccc(S(=O)(=O)Nc2ccccc2)c1)NO + CC(CO)NC(=O)c1cc(-c2ccc(Cl)cc2)nn(-c2cnn(C)c2)c1=O ?
Response given: class 1

Challenge: Hello, I am checking results. What call was entered for COc1cccc2c1C(=O)c1c(O)c3c(c(O)c1C2=O)CC(O)(C(=O)CO)CC3OC1CC(N)C(O)C(C)O1 (centres undefined) + CC(CO)NC(=O)c1cc(-c2ccc(Cl)cc2)nn(-c2cnn(C)c2)c1=O ?
Response given: class 1

Challenge: Hello, I am checking results. What call was entered for O=C(C=Cc1cccc(S(=O)(=O)Nc2ccccc2)c1)NO + Cc1cncc(-c2nc(NCCc3c[nH]c4ccccc34)c3ncn(C(C)C)c3n2)c1 ?
Response given: class 1

Challenge: Hello, I am checking results. What call was entered for COc1ccc([C@@H](O)c2cc(-c3ncnc4cc(N5CCOCC5)ccc34)c(F)cc2Cl)nn1 + Cc1ccccc1N=Nc1ccc(NC(=O)c2ccnn2C)c(C)c1 ?
Response given: class 0

Challenge: Hello, I am checking results. What call was entered for CC(C)c1c(-c2ccccc2)nc2c(C#N)c[nH]n2c1=O + CC(CO)NC(=O)c1cc(-c2ccc(Cl)cc2)nn(-c2cnn(C)c2)c1=O ?
Response given: class 0

Challenge: Hello, I am checking results. What call was entered for CC(C)c1c(-c2ccccc2)nc2c(C#N)c[nH]n2c1=O + Cc1cncc(-c2nc(NCCc3c[nH]c4ccccc34)c3ncn(C(C)C)c3n2)c1 ?
Response given: class 0

Challenge: Hello, I am checking results. What call was entered for Nc1ccccc1NC(=O)c1ccc(CNC(=O)OCc2cccnc2)cc1 + CC(CO)NC(=O)c1cc(-c2ccc(Cl)cc2)nn(-c2cnn(C)c2)c1=O ?
Response given: class 1

Challenge: Hello, I am checking results. What call was entered for CC(C)c1c(-c2ccccc2)nc2c(C#N)c[nH]n2c1=O + Cc1ccccc1N=Nc1ccc(NC(=O)c2ccnn2C)c(C)c1 ?
Response given: class 0

Challenge: Hello, I am checking results. What call was entered for Nc1ccn(C2OC(CO)C(O)C2(F)F)c(=O)n1 (centres undefined) + CC(CO)NC(=O)c1cc(-c2ccc(Cl)cc2)nn(-c2cnn(C)c2)c1=O ?
Response given: class 0

Challenge: Hello, I am checking results. What call was entered for COc1cc(C2c3cc4c(cc3C(OC3OC5COC(C)OC5C(O)C3O)C3COC(=O)C23)OCO4)cc(OC)c1O (centres undefined) + CC(CO)NC(=O)c1cc(-c2ccc(Cl)cc2)nn(-c2cnn(C)c2)c1=O ?
Response given: class 0

Challenge: Hello, I am checking results. What call was entered for Nc1ccccc1NC(=O)c1ccc(CNC(=O)OCc2cccnc2)cc1 + Cc1ccccc1N=Nc1ccc(NC(=O)c2ccnn2C)c(C)c1 ?
Response given: class 1

Challenge: Hello, I am checking results. What call was entered for COc1ccc([C@@H](O)c2cc(-c3ncnc4cc(N5CCOCC5)ccc34)c(F)cc2Cl)nn1 + CC(CO)NC(=O)c1cc(-c2ccc(Cl)cc2)nn(-c2cnn(C)c2)c1=O ?
Response given: class 0

Challenge: Hello, I am checking results. What call was entered for Nc1ccn(C2OC(CO)C(O)C2(F)F)c(=O)n1 (centres undefined) + Cc1ccccc1N=Nc1ccc(NC(=O)c2ccnn2C)c(C)c1 ?
Response given: class 0

Challenge: Hello, I am checking results. What call was entered for CC1COCCN1c1cc(C2(S(C)(=N)=O)CC2)nc(-c2ccnc3[nH]ccc23)n1 (centres undefined) + Cc1ccccc1N=Nc1ccc(NC(=O)c2ccnn2C)c(C)c1 ?
Response given: class 0

Challenge: Hello, I am checking results. What call was entered for COc1cc(Nc2ncc3c(n2)-c2ccc(Cl)cc2C(c2c(F)cccc2OC)=NC3)ccc1C(=O)O + Cc1ccccc1N=Nc1ccc(NC(=O)c2ccnn2C)c(C)c1 ?
Response given: class 0

Challenge: Hello, I am checking results. What call was entered for Nc1ccn(C2OC(CO)C(O)C2(F)F)c(=O)n1 (centres undefined) + Cc1cncc(-c2nc(NCCc3c[nH]c4ccccc34)c3ncn(C(C)C)c3n2)c1 ?
Response given: class 0

Challenge: Hello, I am checking results. What call was entered for CC1(C)CCC(CN2CCN(c3ccc(C(=O)NS(=O)(=O)c4ccc(NCC5CCOCC5)c([N+](=O)[O-])c4)c(Oc4cnc5[nH]ccc5c4)c3)CC2)=C(c2ccc(Cl)cc2)C1 + CC(CO)NC(=O)c1cc(-c2ccc(Cl)cc2)nn(-c2cnn(C)c2)c1=O ?
Response given: class 0

Challenge: Hello, I am checking results. What call was entered for CC1(C)CCC(CN2CCN(c3ccc(C(=O)NS(=O)(=O)c4ccc(NCC5CCOCC5)c([N+](=O)[O-])c4)c(Oc4cnc5[nH]ccc5c4)c3)CC2)=C(c2ccc(Cl)cc2)C1 + Cc1ccccc1N=Nc1ccc(NC(=O)c2ccnn2C)c(C)c1 ?
Response given: class 0
